Assay Target: UniProt Q03732
Sequence (Q03732 as listed by the source): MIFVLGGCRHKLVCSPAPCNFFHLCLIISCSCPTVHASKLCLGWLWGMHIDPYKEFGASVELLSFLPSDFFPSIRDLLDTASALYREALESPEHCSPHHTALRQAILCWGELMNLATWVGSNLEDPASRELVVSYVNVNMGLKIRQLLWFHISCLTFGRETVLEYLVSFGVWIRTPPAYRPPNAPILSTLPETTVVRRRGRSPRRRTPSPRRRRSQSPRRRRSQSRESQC
Assay Protocol: Inhibition of Hepatitis B virus capsid formation at 100 uM treated during cell-free wild type HBV Cp synthesis using wheat germ lysates and HBV Cp RNA by Native capsid assay based western blot analysis
Assay type: subcellular
The source made the active and inactive calls. How the calls were made is not given here. Residues, ends and D or L forms follow the SMILES beside them.
Endpoint: inhibition

# annotated cases, reported inhibition shown
[[record]]
molecule = "CC(=O)N1CCC[C@H]1C(=O)N[C@@H](CO)C(=O)N1CCC[C@H]1C(=O)N[C@@H](CCCNC(=N)N)C(=O)N[C@@H](CCCNC(=N)N)C(=O)N[C@@H](CCCNC(=N)N)C(=O)N[C@@H](CCCNC(=N)N)C(=O)N[C@@H](CO)C(=O)N[C@@H](CCC(N)=O)C(=O)N[C@@H](CO)C(=O)N1CCC[C@H]1C(=O)N[C@@H](CCCNC(=N)N)C(=O)N[C@@H](CCCNC(=N)N)C(=O)N[C@@H](CCCNC(=N)N)C(=O)N[C@@H](CCCNC(=N)N)C(N)=O (Ac-PSPRRRRSQSPRRRR-NH2)"
assay_target = "UniProt Q03732"
endpoint = "inhibition"
val = "inactive"

[[record]]
molecule = "CC[C@H](C)[C@H](NC(=O)[C@@H]1CCCN1C(=O)[C@H](C)NC(=O)[C@H](CC(N)=O)NC(=O)[C@@H]1CCCN1C(=O)[C@@H]1CCCN1C(=O)[C@H](CCCNC(=N)N)NC(=O)[C@H](Cc1ccc(O)cc1)NC(=O)[C@H](C)NC(C)=O)C(=O)N[C@@H](CC(C)C)C(=O)N[C@@H](CO)C(=O)N[C@H](C(=O)N[C@@H](CC(C)C)C(=O)N1CCC[C@H]1C(=O)N[C@@H](CCC(=O)O)C(N)=O)[C@@H](C)O (Ac-AYRPPNAPILSTLPE-NH2)"
assay_target = "UniProt Q03732"
endpoint = "inhibition"
val = "inactive"

[[record]]
molecule = "CC[C@H](C)[C@H](N)C(=O)N[C@@H](CCCNC(=N)N)C(=O)N[C@H](C(=O)N1CCC[C@H]1C(=O)N1CCC[C@H]1C(=O)N[C@@H](C)C(=O)N[C@@H](Cc1ccc(O)cc1)C(=O)N[C@@H](CCCNC(=N)N)C(=O)N1CCC[C@H]1C(=O)N1CCC[C@H]1C(=O)N[C@@H](CC(N)=O)C(=O)N[C@@H](C)C(=O)N1CCC[C@H]1C(=O)N[C@H](C(=O)N[C@@H](CC(C)C)C(N)=O)[C@@H](C)CC)[C@@H](C)O (H-IRTPPAYRPPNAPIL-NH2)"
assay_target = "UniProt Q03732"
endpoint = "inhibition"
val = "inactive"

[[record]]
molecule = "CSCC[C@H](NC(=O)[C@H](CC(N)=O)NC(=O)[C@@H](NC(=O)[C@H](CC(N)=O)NC(=O)[C@@H](NC(=O)[C@H](Cc1ccc(O)cc1)NC(=O)[C@H](CO)NC(=O)[C@@H](NC(=O)[C@@H](NC(=O)[C@H](CC(C)C)NC(=O)[C@H](CCC(=O)O)NC(=O)[C@H](CCCNC(=N)N)NC(=O)[C@H](CO)NC(C)=O)C(C)C)C(C)C)C(C)C)C(C)C)C(=O)NCC(=O)N[C@@H](CC(C)C)C(N)=O"
assay_target = "UniProt Q03732"
endpoint = "inhibition"
val = "inactive"


Let's switch to this molecule now.
So, CSCC[C@H](NC(=O)[C@H](CC(N)=O)NC(=O)[C@@H](NC(=O)[C@H](CC(N)=O)NC(=O)[C@@H](NC(=O)[C@H](Cc1ccc(O)cc1)NC(=O)[C@H](CO)NC(=O)[C@@H](NC(C)=O)C(C)C)C(C)C)C(C)C)C(=O)NCC(=O)N[C@@H](CC(C)C)C(=O)N[C@@H](CCCCN)C(=O)N[C@@H](Cc1ccccc1)C(=O)N[C@@H](CCCNC(=N)N)C(=O)N[C@@H](CCC(N)=O)C(=O)N[C@@H](CC(C)C)C(N)=O (Ac-VSYVNVNMGLKFRQL-NH2) ? Its inhibition was inactive

FYI, the data here is from ChEMBL document CHEMBL6103552.
